// provenance: the supplement of paper PMC11208160

- Procedure summary: recombinant UMI read abundance after kanamycin selection (control-corrected) (log10(CPM+1)); higher = more efficient recombination; extreme values may be limits of the assay; sequences stand for … in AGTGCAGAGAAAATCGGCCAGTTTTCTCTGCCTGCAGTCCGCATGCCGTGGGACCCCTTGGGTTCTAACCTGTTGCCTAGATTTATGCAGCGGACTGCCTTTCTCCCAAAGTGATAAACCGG…AGGTTGGTTTCACT; site = the 11-nt donor
List of recombinant UMI read abundance (log10) values.
Measure name: recombinant UMI read abundance (log10)

1) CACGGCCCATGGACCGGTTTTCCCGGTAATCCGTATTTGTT (site CAAGGCCCTAA) :: 0.0138
2) ACTTGATCATGGACCGGTTTTCCCGGTAATCCGTATTTGCG (site ACTTGATCTCG) :: 1.57
3) TGGGCGGCATGGACCGGTTTTCCCGGTAATCCGTATTTGAT (site TGGGCGGCTAT) :: 1.11
4) ACGTTTACATGGACCGGTTTTCCCGGTAATCCGTATTTGCT (site ACGTTTACTAG) :: 2.06
5) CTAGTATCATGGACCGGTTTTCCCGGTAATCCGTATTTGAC (site CTGGTATCTTT) :: 0.0145
6) CGGAATCCATGGACCGGTTTTCCCGGTAATCCGTATTTGGT (site CGGAATCCTAT) :: 0
7) TACAGCTCATGGACCGGTTTTCCCGGTAATCCGTATTTGGA (site TACAGCTCTTC) :: 0.841
8) AGCCCTGCATGGACCGGTTTTCCCGGTAATCCGTATTTGGG (site AGCCCTGCTCC) :: 0.336
9) TGTTTCCCATGGACCGGTTTTCCCGGTAATCCGTATTTGTA (site TGTTACCCTTA) :: 0.139
10) AACGTAACATGGACCGGTTTTCCCGGTAATCCGTATTTGCT (site AAAGTAACTAG) :: 0.893
11) CTACTATCATGGACCGGTTTTCCCGGTAATCCGTATTTGGA (site CTACTAGCTTC) :: 0.0148
12) TCAGTGACATGGACCGGTTTTCCCGGTAATCCGTATTTGCG (site TCAGTGACTCG) :: 1.21
13) CGTTTGGCATGGACCGGTTTTCCCGGTAATCCGTATTTGCC (site CGTTTGGCTAG) :: 0
14) AGAGTTACATGGACCGGTTTTCCCGGTAATCCGTATTTGGC (site AGAGTTACTGC) :: 2.43
15) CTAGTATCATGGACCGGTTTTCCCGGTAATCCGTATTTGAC (site ATAGTATCTTT) :: 0.00657
16) TACCGTCCATGGACCGGTTTTCCCGGTAATCCGTATTTGAT (site TACCGTCCTAT) :: 0.00444
17) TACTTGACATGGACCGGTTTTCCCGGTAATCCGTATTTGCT (site TACTTGACTAG) :: 1.12
18) TACAGTCCATGGACCGGTTTTCCCGGTAATCCGTATTTGTA (site TACAGTCCTTA) :: 0.128
19) CCTAAGACATGGACCGGTTTTCCCGGTAATCCGTATTTGGC (site CCTAATACTGC) :: 0
20) CCCTGGCCATGGACCGGTTTTCCCGGTAATCCGTATTTGCC (site CCCTAGCCTGG) :: 0
21) ACGTTTGCATGGACCGGTTTTCCCGGTAATCCGTATTTGTC (site ACGTTTGCTGA) :: 1.45
22) TCGCTAGCATGGACCGGTTTTCCCGGTAATCCGTATTTGAA (site TGGCTAGCTTT) :: 0
23) CAGTCCTCATGGACCGGTTTTCCCGGTAATCCGTATTTGCC (site CAATCCTCTGG) :: 2.78
24) GCCGCGCCATGGACCGGTTTTCCCGGTAATCCGTATTTGGG (site GCCGCGCCTCC) :: 0.0148
25) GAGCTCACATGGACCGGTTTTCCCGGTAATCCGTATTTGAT (site GAGCCCACTAT) :: 0.905
26) CAGCTAGCATGGACCGGTTTTCCCGGTAATCCGTATTTGAA (site GAGCTAGCTTT) :: 0.0499
27) GCCAGGCCATGGACCGGTTTTCCCGGTAATCCGTATTTGTA (site GCCAGGCCTTA) :: 0.112
28) CCGTCGACATGGACCGGTTTTCCCGGTAATCCGTATTTGGG (site CCGTCGACTCC) :: 0.0232
29) AGTGCCCCATGGACCGGTTTTCCCGGTAATCCGTATTTGCT (site AGTGCCCCTAG) :: 0.594
30) CTCTACACATGGACCGGTTTTCCCGGTAATCCGTATTTGGT (site CTCTACACTAG) :: 0.21
31) CACTGACCATGGACCGGTTTTCCCGGTAATCCGTATTTGGG (site CACTGACCTCC) :: 0.00646
32) CCACTAACATGGACCGGTTTTCCCGGTAATCCGTATTTGGA (site CTACTAACTTC) :: 0.0175
33) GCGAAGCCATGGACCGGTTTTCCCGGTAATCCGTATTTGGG (site GCGAAGCCTGC) :: 0
34) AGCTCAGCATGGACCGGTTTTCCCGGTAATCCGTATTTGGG (site AGCTCATCTCC) :: 0.0384
35) CACGTATCATGGACCGGTTTTCCCGGTAATCCGTATTTGAC (site CACGTATCTGT) :: 2.78
36) CAGAATCCATGGACCGGTTTTCCCGGTAATCCGTATTTGTT (site CTGAATCCTAA) :: 0

* * *

- Procedure summary: recombinant barcode read abundance after kanamycin selection (control-corrected) (log10(CPM+1)); higher = more efficient recombination; sequences stand for … in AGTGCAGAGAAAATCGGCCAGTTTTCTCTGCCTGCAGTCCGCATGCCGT…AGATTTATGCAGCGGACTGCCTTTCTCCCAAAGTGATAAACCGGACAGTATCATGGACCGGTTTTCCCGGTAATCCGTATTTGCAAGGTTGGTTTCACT; site = the 11-nt target
Measure name: recombinant barcode read abundance (log10)

1) TTGCCGACTTGGGTTCTAACCTGTTGCCA (site TTGCCGACTTG) :: 0.503
2) ACTTAGACTTGGGTTCTAACCTGTTGCCT (site ACTTAGACTTG) :: 0
3) TAGCGGCCTTGGGTTCTAACCTGTTGCGG (site TAGCGGCCTCC) :: 2.23
4) TAGGTCACTTGGGTTCTAACCTGTTGCAT (site TAGCTCACTAT) :: 0.0353
5) GTAAACCCTTGGGTTCTAACCTGTTGCGG (site GTAAACCCTCC) :: 2.33
6) TGAAGGTCTTGGGTTCTAACCTGTTGCCT (site TGAAAGTCTAG) :: 0.213
7) GACTGCCCTTGGGTTCTAACCTGTTGCCT (site GCCTGCCCTAG) :: 0.164
8) AGTAAGACTTGGGTTCTAACCTGTTGCTT (site AGTAAGACTAT) :: 0.15
9) GAGGGTCCTTGGGTTCTAACCTGTTGCGT (site GAGGGTCCTAC) :: 2.82
10) GACTATTCTTGGGTTCTAACCTGTTGCCT (site GAGTATTCTAG) :: 0.106

* * *

- Procedure summary: recombinant barcode read abundance after kanamycin selection (control-corrected) (log10(CPM+1)); higher = more efficient recombination; sequences stand for … in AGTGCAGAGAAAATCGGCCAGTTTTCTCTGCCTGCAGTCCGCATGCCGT…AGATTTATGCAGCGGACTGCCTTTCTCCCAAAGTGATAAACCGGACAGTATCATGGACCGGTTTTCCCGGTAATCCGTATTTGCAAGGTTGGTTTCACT; site = the 11-nt target
Could you label it Criterion met if measured recombinant barcode read abundance (log10) is 0.2 or higher, and Criterion not met otherwise?

1. ATGTCTCCTTGGGTTCTAACCTGTTGCCT (site TTGTCTCCTAG) :: Criterion met
2. TGCCTGCCTTGGGTTCTAACCTGTTGCCT (site TGCCTGCCTAG) :: Criterion met
3. ACAGTAGCTTGGGTTCTAACCTGTTGCCG (site ACAGTAGCTCG) :: Criterion met
4. TGCAGGGCTTGGGTTCTAACCTGTTGCGG (site TGCAGGGCTCC) :: Criterion met
5. GGCACCGCTTGGGTTCTAACCTGTTGCCT (site GGCACGGCTAG) :: Criterion not met
6. GACATATCTTGGGTTCTAACCTGTTGCTG (site GACATATCTCA) :: Criterion met
7. CTACTAGCTTGGGTTCTAACCTGTTGCAG (site CTACTAGCTTT) :: Criterion not met
8. ATAAGCTCTTGGGTTCTAACCTGTTGCCG (site ATAAGCTCTCG) :: Criterion met
9. CTACAAGCTTGGGTTCTAACCTGTTGCCT (site CTGCAAGCTAG) :: Criterion not met
10. AGTTTCGCTTGGGTTCTAACCTGTTGCGG (site AGTCTCGCTCC) :: Criterion not met
11. AGTCTAGCTTGGGTTCTAACCTGTTGCCA (site AGTCTAGCTTG) :: Criterion met
12. CCGCATACTTGGGTTCTAACCTGTTGCCT (site CCGCATACTAG) :: Criterion met
13. TACTAAGCTTGGGTTCTAACCTGTTGCGT (site TACTAAGCTAG) :: Criterion not met
14. GGAAGCTCTTGGGTTCTAACCTGTTGCTT (site GTACGCTCTAA) :: Criterion not met
15. AGTACTACTTGGGTTCTAACCTGTTGCCT (site ATTACTACTAG) :: Criterion not met
16. GGTCGGACTTGGGTTCTAACCTGTTGCCA (site GGTCGGACTTG) :: Criterion met
17. ATGCCGACTTGGGTTCTAACCTGTTGCCT (site ATGCCTACTAG) :: Criterion not met
18. TTAGCATCTTGGGTTCTAACCTGTTGCCT (site TTAGCTTCTAG) :: Criterion not met
19. ACAGGTTCTTGGGTTCTAACCTGTTGCCT (site ACAGGTTCTAG) :: Criterion met
20. GATAGGACTTGGGTTCTAACCTGTTGCGT (site TATAGGACTAC) :: Criterion met
21. CATTCACCTTGGGTTCTAACCTGTTGCCT (site TATTCACCTAG) :: Criterion not met
